- Tested on: NCI-H1395
- run_description: relative viability (nuclei count vs DMSO), 5 days (fraction); higher = more cells survive
- particulars: first compound 2.53 µM
Returns: string. Value is MET if measured relative viability is below 0.6, and NOT MET if it is greater than or equal to it.

Query: Please determine if Oc1nc(-c2ccc(C(F)(F)F)cc2)nc2c1CSCC2 [XAV939] + Cc1cc(Nc2cc(N3CCN(C)CC3)nc(Sc3ccc(NC(=O)C4CC4)cc3)n2)n[nH]1 [Tozasertib] (partner 0.1 µM) is below 0.6 in terms of relative viability.
Response: NOT MET

Query: Request: Oc1nc(-c2ccc(C(F)(F)F)cc2)nc2c1CSCC2 [XAV939] + O=C(c1cc(Cc2n[nH]c(=O)c3ccccc23)ccc1F)N1CCN(C(=O)C2CC2)CC1 [Olaparib] (partner 8 µM)
Response: MET

Query: Request: C=C1C(=O)O[C@@H](CCCCCCCC)[C@@H]1C(=O)O [C-75] + Cc1cc(Nc2cc(N3CCN(C)CC3)nc(Sc3ccc(NC(=O)C4CC4)cc3)n2)n[nH]1 [Tozasertib] (partner 0.1 µM)
Response: NOT MET

Query: Request: Oc1nc(-c2ccc(C(F)(F)F)cc2)nc2c1CSCC2 [XAV939] + Cc1nc(Nc2ncc(C(=O)Nc3c(C)cccc3Cl)s2)cc(N2CCN(CCO)CC2)n1 [Dasatinib] (partner 0.075 µM)
Response: MET

Query: Request: Oc1nc(-c2ccc(C(F)(F)F)cc2)nc2c1CSCC2 [XAV939] + CC(=O)c1c(C)c2cnc(Nc3ccc(N4CCNCC4)cn3)nc2n(C2CCCC2)c1=O [Palbociclib] (partner 0.5 µM)
Response: MET

Query: Request: C=C1C(=O)O[C@@H](CCCCCCCC)[C@@H]1C(=O)O [C-75] + CCNC(=O)c1noc(-c2cc(C(C)C)c(O)cc2O)c1-c1ccc(CN2CCOCC2)cc1 [Luminespib] (partner 0.01 µM)
Response: NOT MET

Query: Request: Oc1nc(-c2ccc(C(F)(F)F)cc2)nc2c1CSCC2 [XAV939] + Cc1nc(NC(=O)N2CCC[C@H]2C(N)=O)sc1-c1ccnc(C(C)(C)C(F)(F)F)c1 [Alpelisib] (partner 2 µM)
Response: NOT MET

From: the supplement of paper PMC10307832
